Experiment: Plasma pharmacokinetics of Compound 2 in PD participants (LC-MS/MS)
Format: in vivo, human
Conditions: human, plasma, po, 15 mg, plasma, Week 4; ROW, High 15 mg once daily oral, n = 4; read-out: AUC0-24, Geometric mean
reported.property: AUC(0-t) (ng·h/mL)

1. CC(C)(NC(=O)O[C@@H]1CN2CCC1CC2)c1csc(-c2ccc(F)cc2)n1 [Compound 2] ... 2490

###

Test: Plasma pharmacokinetics of Compound 2 in PD participants (LC-MS/MS)
Format: in vivo, human
Conditions: human, plasma, po, 8 mg, plasma, Week 4; ROW, Mid 8 mg once daily oral, n = 5; read-out: AUC0-24, Geometric mean
reported.property: AUC(0-t) (ng·h/mL)

1) CC(C)(NC(=O)O[C@@H]1CN2CCC1CC2)c1csc(-c2ccc(F)cc2)n1 [Compound 2] ... 1490
